System: KU-812
RUN DESCRIPTION: cell viability (% survival relative to DMSO control, bortezomib = 0%); higher = less cytotoxic
ASSAY CONDITIONS: 100 nM; 72 h
OUTCOME MEASURE: cell viability (%)
# unit: % | format: bare number

Take a look at these entries with their results.
INSERT INTO assay_data (compound, recorded_result) VALUES
  ('O=C(O)c1nn(Cc2ccc(Cl)cc2Cl)c2ccccc12 [Lonidamine]', 112),
  ('Cl.OC[C@H]1NC[C@@H](O)[C@@H](O)[C@@H]1O [1-Deoxymannojirimycin hydrochloride]', 95.7);

[in] # return recorded cell viability for input O=C(COc1ccc(C(=O)c2ccccc2)cc1)NC1CCN(Cc2ccccc2)CC1 [AdipoRon]
[out] 90.9

[in] Fill in reported cell viability for this entry: CC12CCC(O)CC1CCC1C2CCC2(C)C(C3=CC(=O)OC3)CCC12O (stereo not given) [Digitoxigenin]
[out] 101

[in] Give me measured cell viability, please, for this compound: O=C1Oc2ccccc2C(=O)C1CC1C(=O)Oc2ccccc2C1=O (stereo not given) [Dicumarol]
[out] 84.2
